Species on record: Rattus norvegicus
Test: Open TG-GATES - Regimen: Single
Assay type: toxicity, organism-based, Sprague-Dawley
Parameters: regimen Single, gender Male, age 6 weeks
Details: in vivo, po, 0 mg/kg, 9 h, route gavage, dose level Control
OUTCOME_MEASURE: TERMINAL_BW
Write down the value, and be sure its unit follows.

IN: Fill in TERMINAL_BW for record Oc1ncnc2[nH]ncc12 [ALLOPURINOL]
OUT: 204.6 g

IN: Fill in TERMINAL_BW for record O=C(N[C@H](CO)[C@H](O)c1ccc([N+](=O)[O-])cc1)C(Cl)Cl [CHLORAMPHENICOL]
OUT: 222.7 g

IN: Fill in TERMINAL_BW for record CCC(C)(C)C(=O)O[C@H]1C[C@@H](C)C=C2C=C[C@H](C)[C@H](CC[C@@H]3C[C@@H](O)CC(=O)O3)[C@H]21 [SIMVASTATIN]
OUT: 197.5 g

IN: Fill in TERMINAL_BW for record CC(=N)S [THIOACETAMIDE]
OUT: 186.9 g

IN: Fill in TERMINAL_BW for record CN1C(=O)OC(C)(C)C1=O [TRIMETHADIONE]
OUT: 205.5 g

IN: Fill in TERMINAL_BW for record CC(=O)Oc1cc(C(C)C)c(OCCN(C)C)cc1C [MOXISYLYTE]
OUT: 211.6 g

IN: Fill in TERMINAL_BW for record CCN1CCCC1CNC(=O)c1cc(S(N)(=O)=O)ccc1OC (stereo not given) [SULPIRIDE]
OUT: 200.2 g

IN: Fill in TERMINAL_BW for record CC(C)C(=O)Nc1ccc([N+](=O)[O-])c(C(F)(F)F)c1 [FLUTAMIDE]
OUT: 204.9 g

IN: Fill in TERMINAL_BW for record "Nc1nc(N)c2nc(-c3ccccc3)c(N)nc2n1"
OUT: 210.8 g

IN: Fill in TERMINAL_BW for record C[C@](N)(Cc1ccc(O)c(O)c1)C(=O)O [METHYLDOPA]
OUT: 189.5 g

IN: Fill in TERMINAL_BW for record CCSCC[C@H](N)C(=O)O [ETHIONINE]
OUT: 213.3 g

IN: Fill in TERMINAL_BW for record CC(C)(S)[C@@H](N)C(=O)O [PENICILLAMINE]
OUT: 199.9 g

IN: Fill in TERMINAL_BW for record C[C@]12CCC(=O)C=C1CC[C@@H]1[C@@H]2CC[C@@]2(C)[C@H]1CC[C@]2(C)O [METHYLTESTOSTERONE]
OUT: 203.4 g

IN: Fill in TERMINAL_BW for record C#C[C@]1(O)CC[C@H]2[C@@H]3CCc4cc(O)ccc4[C@H]3CC[C@@]21C [ETHINYL ESTRADIOL]
OUT: 195.8 g

IN: Fill in TERMINAL_BW for record CCc1oc2ccccc2c1C(=O)c1cc(I)c(O)c(I)c1 [BENZIODARONE]
OUT: 208.6 g

---

For each of the compounds below, state its Ca.
Organism: Rattus norvegicus
Test: Open TG-GATES - Regimen: Daily Repeat
Type: toxicity, organism-based, Sprague-Dawley
Parameters: regimen Daily Repeat, gender Male, age 6 weeks
Details: in vivo, po, 100 mg/kg, […], tissue Plasma, route gavage, dose level Low, time 28 day
Respond numerically; units are mg/dL and should not be typed.

IN: Fill in Ca for record O=C(O)c1cccnc1 [NIACIN]
OUT: 10.4

IN: Fill in Ca for record O=C(N[C@H](CO)[C@H](O)c1ccc([N+](=O)[O-])cc1)C(Cl)Cl [CHLORAMPHENICOL]
OUT: 10.9

IN: Fill in Ca for record CC(C)(S)[C@@H](N)C(=O)O [PENICILLAMINE]
OUT: 10.9

IN: Fill in Ca for record CCN1CCCC1CNC(=O)c1cc(S(N)(=O)=O)ccc1OC (centres undefined) [SULPIRIDE]
OUT: 10.5

Measured values drawn from ChEMBL document CHEMBL3885861 for this set.
